- TESTED SYSTEM: Chromo domain-containing protein 1 (Saccharomyces cerevisiae (strain ATCC 204508 / S288c) (Baker's yeast)) (UniProt P32657)
- Sequence (P32657 whole entry, the tested form may be a part): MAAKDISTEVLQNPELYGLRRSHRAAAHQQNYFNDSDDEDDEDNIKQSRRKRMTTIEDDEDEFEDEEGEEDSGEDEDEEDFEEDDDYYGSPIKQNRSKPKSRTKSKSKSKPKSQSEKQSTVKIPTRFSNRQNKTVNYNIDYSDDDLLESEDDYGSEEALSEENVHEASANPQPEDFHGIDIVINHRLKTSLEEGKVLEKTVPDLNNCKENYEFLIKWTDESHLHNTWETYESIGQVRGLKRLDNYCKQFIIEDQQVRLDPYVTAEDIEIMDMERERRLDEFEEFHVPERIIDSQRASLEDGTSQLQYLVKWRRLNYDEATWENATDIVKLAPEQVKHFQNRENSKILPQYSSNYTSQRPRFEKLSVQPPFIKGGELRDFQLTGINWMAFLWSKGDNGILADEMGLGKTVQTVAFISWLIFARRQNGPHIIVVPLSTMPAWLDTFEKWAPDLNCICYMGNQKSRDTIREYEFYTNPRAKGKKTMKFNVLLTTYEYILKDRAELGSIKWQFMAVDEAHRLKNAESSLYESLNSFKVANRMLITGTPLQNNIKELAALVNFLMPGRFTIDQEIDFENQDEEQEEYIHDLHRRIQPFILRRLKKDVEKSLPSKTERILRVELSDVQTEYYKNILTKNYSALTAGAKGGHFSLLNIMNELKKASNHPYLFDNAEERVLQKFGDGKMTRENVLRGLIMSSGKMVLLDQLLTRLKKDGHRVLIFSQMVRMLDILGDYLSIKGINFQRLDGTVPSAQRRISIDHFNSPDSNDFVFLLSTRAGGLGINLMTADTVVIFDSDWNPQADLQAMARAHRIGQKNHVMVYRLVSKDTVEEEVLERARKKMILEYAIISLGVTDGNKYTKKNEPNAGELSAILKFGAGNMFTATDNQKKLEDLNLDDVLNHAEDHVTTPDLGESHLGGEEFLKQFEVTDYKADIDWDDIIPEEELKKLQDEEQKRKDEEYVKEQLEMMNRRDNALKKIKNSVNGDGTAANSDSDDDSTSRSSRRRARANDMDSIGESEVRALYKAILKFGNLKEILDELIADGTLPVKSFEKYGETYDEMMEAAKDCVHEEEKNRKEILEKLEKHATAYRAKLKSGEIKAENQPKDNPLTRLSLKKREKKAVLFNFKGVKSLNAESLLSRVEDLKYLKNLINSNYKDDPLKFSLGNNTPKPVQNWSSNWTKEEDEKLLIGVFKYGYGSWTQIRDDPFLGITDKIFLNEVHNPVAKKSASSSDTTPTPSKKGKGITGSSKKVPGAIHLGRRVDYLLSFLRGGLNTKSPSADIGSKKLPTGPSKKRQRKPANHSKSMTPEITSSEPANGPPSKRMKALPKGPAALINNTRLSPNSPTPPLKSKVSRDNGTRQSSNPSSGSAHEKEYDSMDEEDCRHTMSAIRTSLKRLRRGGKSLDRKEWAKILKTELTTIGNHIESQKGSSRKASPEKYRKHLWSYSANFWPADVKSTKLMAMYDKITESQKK
- EXPERIMENT NOTES: ScCHD-1 Enzyme Inhibition Assay; also: in the data most compounds retested in dose-response had high values
- Type: functional
- Parameters: scale not given: direction of the effect not stated beside the values
- TEST SETTINGS: 30 µM
Recorded Percent Effect values for a group of compounds are listed next.

COMPOUND: CC(=O)N1CCCC1c1nccnc1Nc1cccc(C)n1 (stereo unspecified)
Percent Effect (%): 4.34
--
COMPOUND: CCOCC(=O)N1C[C@@H](NC(C)=O)[C@H](c2ccc(OC)cc2)C1
Percent Effect (%): -1.7
--
COMPOUND: FC1(F)CCN(Cc2ccccn2)CC12CCN(c1cccnc1)C2 (stereo unspecified)
Percent Effect (%): -1.38
--
COMPOUND: Cc1ccc(NC(=O)c2n[nH]c(-n3cnnc3)n2)cc1C
Percent Effect (%): -18.6
--
COMPOUND: O=C(CC1=CCCCC1)NCCc1csc(N2CCCC2)n1
Percent Effect (%): 33
--
COMPOUND: CNC(=O)CC1CCN(Cc2nc(-c3cccc(Cl)c3)oc2C)CC1
Percent Effect (%): -2.39

====

Recorded Percent Effect values for a group of molecules are listed next.
- TESTED SYSTEM: Sialic acid-binding Ig-like lectin 9 (Homo sapiens)
- EXPERIMENT NOTES: Hs-Siglec9 ALPHAscreen SOP 20170721
- Design: scale not given: direction of the effect not stated beside the values
- TEST SETTINGS: 10 µM
TEST READOUT: Percent Effect (%)

MOLECULE: Cc1ccc(N(C)C2CCN(C(=O)CCc3ccco3)CC2)nn1
TEST READOUT: Percent Effect
VALUE UNIT: %
RESULT: 1.05

MOLECULE: COc1ccccc1C(O)CNC(=O)Nc1ncccc1C (centres undefined)
TEST READOUT: Percent Effect
VALUE UNIT: %
RESULT: -8.4

MOLECULE: CCN(c1ccc(C(=O)NCCCN2CCOCC2)cc1)S(=O)(=O)CC
TEST READOUT: Percent Effect
VALUE UNIT: %
RESULT: -8.52

MOLECULE: CC1CCCCN1CCNC(=O)c1ccn(-c2ccc(F)cc2)n1 (centres undefined)
TEST READOUT: Percent Effect
VALUE UNIT: %
RESULT: 3.77

MOLECULE: Cc1ccc(C(O)CNC(=O)NCc2nc(C)cs2)cc1 (centres undefined)
TEST READOUT: Percent Effect
VALUE UNIT: %
RESULT: 3.69

MOLECULE: Cn1cc(NS(=O)(=O)c2ccc(OC(F)(F)F)cc2)ccc1=O
TEST READOUT: Percent Effect
VALUE UNIT: %
RESULT: -4.96

MOLECULE: Cc1cc(C)cc(N(C)S(=O)(=O)c2cc(C(=O)O)cs2)c1
TEST READOUT: Percent Effect
VALUE UNIT: %
RESULT: 15.8

MOLECULE: Cc1nc(CCCNC(=O)C2CC(=O)N(C(C)(C)C)C2)sc1C (centres undefined)
TEST READOUT: Percent Effect
VALUE UNIT: %
RESULT: 4.12

MOLECULE: c1coc(-c2noc(CN3CCC(c4ccn[nH]4)CC3)n2)c1
TEST READOUT: Percent Effect
VALUE UNIT: %
RESULT: 31.9

MOLECULE: COCC(=O)N1CC[C@@H]2O[C@H](COCc3ccncc3)CC[C@@H]21
TEST READOUT: Percent Effect
VALUE UNIT: %
RESULT: -8.21

MOLECULE: NC(=O)Nc1cccc(Oc2ccccn2)c1
TEST READOUT: Percent Effect
VALUE UNIT: %
RESULT: -0.357

MOLECULE: Cc1cnn(CC2CN(Cc3cccc(C(=O)N(C)C)c3)CCO2)c1 (centres undefined)
TEST READOUT: Percent Effect
VALUE UNIT: %
RESULT: 0.495

MOLECULE: COc1cccc(C2CCCN2Cc2nc3c(cnn3C)c(=O)[nH]2)c1 (centres undefined)
TEST READOUT: Percent Effect
VALUE UNIT: %
RESULT: -5.13

MOLECULE: c1ccc(-c2noc(CN3CCOC(Cn4cccn4)C3)n2)nc1 (centres undefined)
TEST READOUT: Percent Effect
VALUE UNIT: %
RESULT: 8.36

MOLECULE: COc1ccccc1OC1(C(=O)O)CCN(c2nccnc2C)CC1
TEST READOUT: Percent Effect
VALUE UNIT: %
RESULT: 9.27

MOLECULE: COCC(=O)NCCn1ccc2c(OC)cccc21
TEST READOUT: Percent Effect
VALUE UNIT: %
RESULT: 6.9

MOLECULE: O=C1CC[C@H]2[C@H](CCN2C(=O)C2CCCO2)N1CCN1CCCC1 (some centres undefined)
TEST READOUT: Percent Effect
VALUE UNIT: %
RESULT: -1.83

MOLECULE: COC(=O)N1CCCC(C(=O)NCc2cc3cccc(OC)c3o2)C1 (centres undefined)
TEST READOUT: Percent Effect
VALUE UNIT: %
RESULT: 19.5

MOLECULE: CC(C)Oc1ccc(CNC(=O)CC(F)(F)F)cc1F
TEST READOUT: Percent Effect
VALUE UNIT: %
RESULT: 6.95

MOLECULE: O=C(c1cccn1Cc1cccs1)N1CCN(C2CC2)CC1
TEST READOUT: Percent Effect
VALUE UNIT: %
RESULT: 11

MOLECULE: COCCCN1CCCN(C(C)C(=O)Nc2ccnn2C(C)C)CC1 (centres undefined)
TEST READOUT: Percent Effect
VALUE UNIT: %
RESULT: -1.48

MOLECULE: Cc1nc(-c2ccc(Cl)s2)sc1C(=O)NCCS(N)(=O)=O
TEST READOUT: Percent Effect
VALUE UNIT: %
RESULT: 14.1

MOLECULE: Cn1cnc(S(=O)(=O)NCCN2CCCCCC2=O)c1Cl
TEST READOUT: Percent Effect
VALUE UNIT: %
RESULT: 6.15

MOLECULE: O=C(O)[C@@H]1CN(C(=O)c2ccc3[nH]nnc3c2)C[C@H]1c1cccc(F)c1
TEST READOUT: Percent Effect
VALUE UNIT: %
RESULT: 8.16

====

- TESTED SYSTEM: Ubiquitin-activating enzyme e1, putative (Leishmania donovani (strain BPK282A1))
- EXPERIMENT NOTES: Leishmania donovani Ubiquitin Activating Enzyme (LdE1)
- Format: functional
- Set-up: scale not given: direction of the effect not stated beside the values
- TEST SETTINGS: 30 µM
Entries with a potency or affinity are not part of this list.
Recorded Percent Effect values for a group of compounds are listed next.
TEST READOUT: Percent Effect (%)

COMPOUND: COc1cccc(-c2nc(C)c(C(=O)N[C@@H](C)C(=O)O)s2)c1
VALUE UNIT: %
RESULT: 12
--
COMPOUND: O=C(NCc1cc[nH]n1)NCC(c1ccccc1Cl)N1CCCC1 (stereo not drawn)
VALUE UNIT: %
RESULT: 5.41
--
COMPOUND: c1ccc(-c2cnc(CN3CCCC3Cn3cncn3)o2)cc1 (stereo not drawn)
VALUE UNIT: %
RESULT: 5.06
--
COMPOUND: Cc1ccc(NC2CCN(C(=O)c3cccn3C)CC2)nn1
VALUE UNIT: %
RESULT: 7.79
--
COMPOUND: CN(C)C(=O)c1ccc2c(c1)N(C)C(CC(=O)NCc1ccno1)CO2 (stereo not drawn)
VALUE UNIT: %
RESULT: 6.94
--
COMPOUND: CC(C)(C)c1n[nH]cc1CN1CCc2nc3ccsc3c(=O)n2CC1
VALUE UNIT: %
RESULT: 25.7
--
COMPOUND: CC(C)c1nnc2n1CCN(CCCS(=O)(=O)c1ccccc1)C2
VALUE UNIT: %
RESULT: 7.79
--
COMPOUND: O=C(c1cc[nH]n1)N1CCCC1C1CCN(Cc2ccccc2)CC1 (stereo not drawn)
VALUE UNIT: %
RESULT: -7.89
--
COMPOUND: COc1cccc(CCC(=O)N2CCCCC2Cn2cccn2)c1 (stereo not drawn)
VALUE UNIT: %
RESULT: 7.79
--
COMPOUND: CCS(=O)(=O)c1ccccc1N1CCC(NC(=O)NC2CCCC2)CC1
VALUE UNIT: %
RESULT: 10.8
--
COMPOUND: Cc1cccc(-c2ccc(C(=O)NCC(C)(C)C(N)=O)c(=O)[nH]2)c1
VALUE UNIT: %
RESULT: 2.7
--
COMPOUND: N#Cc1ccnc(N2CCN(C(=O)NC3CCS(=O)(=O)C3)CC2)c1 (stereo not drawn)
VALUE UNIT: %
RESULT: 16.2
--
COMPOUND: Fc1cc(CNCc2ccc3c(c2)CCO3)ccc1N1CCOCC1
VALUE UNIT: %
RESULT: -8.11
--
COMPOUND: Cc1nc(C)n(CC2CCCN2Cc2nc(-c3cccs3)no2)n1 (stereo not drawn)
VALUE UNIT: %
RESULT: -7.89
--
COMPOUND: CNC(=O)[C@H]1C[C@@H]2CN(C(=O)c3cscn3)C[C@@H]2N1S(C)(=O)=O
VALUE UNIT: %
RESULT: 5.33
--
COMPOUND: O=C(Cc1cccs1)NC1CCN(c2cccc(F)c2)CC1
VALUE UNIT: %
RESULT: 16.4
--
COMPOUND: CNC(=O)[C@@H]1C[C@H]2CN(C(=O)c3ccco3)C[C@H]2N1C
VALUE UNIT: %
RESULT: 2.67
--
COMPOUND: COc1ccc(NC(=O)CCC2CCCN(Cc3ncon3)C2)c(C)c1 (stereo not drawn)
VALUE UNIT: %
RESULT: 2.67
--
COMPOUND: Cc1ccc(CN2CCC3(CC2)CC(c2cccnc2)CO3)s1 (stereo not drawn)
VALUE UNIT: %
RESULT: 5.41
--
COMPOUND: O=C(c1cccnc1)N1CC[C@H](OCC2CC2)[C@@H]1Cc1cccnc1
VALUE UNIT: %
RESULT: 13.3
--
COMPOUND: Cn1cc(CN(Cc2ccccc2)CC(O)c2cccs2)cn1 (stereo not drawn)
VALUE UNIT: %
RESULT: 2.7
--
COMPOUND: COc1ccc(CNC(=O)NC2CCN(CC(F)F)CC2)cc1C
VALUE UNIT: %
RESULT: 5.41
--
COMPOUND: CC1CCCN(C(=O)CCc2cccnc2)C1 (stereo not drawn)
VALUE UNIT: %
RESULT: 17.7

# credit: ChEMBL document CHEMBL3988442
